The entries below come with measured IC50 values attached.
# study.system: androgen receptor (AR) (Homo sapiens, UniProt P10275, T878A)
# Construct: LNCaP cells were transiently transfected with the PSA (6.1 kb)-luciferase reporter for 24 h; endogenous in cells; host or cells: LNCaP
# Sequence (P10275 1-920 T878A): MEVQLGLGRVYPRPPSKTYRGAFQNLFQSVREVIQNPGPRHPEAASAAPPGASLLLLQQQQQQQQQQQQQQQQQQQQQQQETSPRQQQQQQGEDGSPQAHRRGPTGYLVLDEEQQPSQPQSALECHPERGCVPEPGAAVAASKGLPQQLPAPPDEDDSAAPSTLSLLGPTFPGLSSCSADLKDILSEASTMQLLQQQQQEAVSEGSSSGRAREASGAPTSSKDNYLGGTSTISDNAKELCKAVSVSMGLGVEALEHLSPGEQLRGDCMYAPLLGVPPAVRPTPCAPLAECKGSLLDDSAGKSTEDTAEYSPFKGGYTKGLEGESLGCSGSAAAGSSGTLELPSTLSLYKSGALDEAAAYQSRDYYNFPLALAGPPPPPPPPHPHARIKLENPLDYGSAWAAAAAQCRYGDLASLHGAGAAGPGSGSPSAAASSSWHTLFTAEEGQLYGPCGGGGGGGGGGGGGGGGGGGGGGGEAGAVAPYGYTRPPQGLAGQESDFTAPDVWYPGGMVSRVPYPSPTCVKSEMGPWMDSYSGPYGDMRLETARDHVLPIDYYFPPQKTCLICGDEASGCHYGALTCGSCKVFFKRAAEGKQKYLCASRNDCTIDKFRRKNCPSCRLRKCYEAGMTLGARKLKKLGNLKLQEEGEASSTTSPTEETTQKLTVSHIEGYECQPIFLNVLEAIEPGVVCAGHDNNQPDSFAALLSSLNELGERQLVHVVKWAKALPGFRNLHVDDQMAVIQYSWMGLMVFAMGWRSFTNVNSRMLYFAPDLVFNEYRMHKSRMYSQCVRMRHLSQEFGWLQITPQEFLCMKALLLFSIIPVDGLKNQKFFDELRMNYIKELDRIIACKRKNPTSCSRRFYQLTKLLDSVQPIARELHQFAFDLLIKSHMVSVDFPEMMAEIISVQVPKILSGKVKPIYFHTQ
# test.summary: Androgen-induced PSA (6.1 kb)-luciferase reporter assay in LNCaP cells
# Type: cell-based
# run.parameters: LNCaP cells transfected with PSA (6.1 kb)-luciferase reporter, R1881 1 nM, 24 h; read-out: PSA-Luc IC50 Range
# Method: The PSA (6.1 kb)-luciferase reporter contains functional AREs (androgen response elements) to which AR binds in response to androgen to induce luciferase activity. Cells were lysed using Passive Lysis Buffer (Promega) and then collected into V-bottom 96-well tissue culture plates. Lysates were centrifuged at 4° C. for 5 minutes at 3000 rpm. To measure luminescence of LNCaP cell lysates the Firefly Luciferase Assay System (Promega) was employed, according to manufacturer's protocol. […]

Examples with their reported IC50 follow.
{"columns": ["molecule", "result"],
 "data": [
  ["CCOc1c(Cl)cc(C(C)(C)c2ccc(OCc3ocnc3S(C)(=O)=O)cc2)cc1Cl", "> 2 µM"],
  ["CC(C)(c1ccc(OCc2ccnc(S(C)(=O)=O)n2)cc1)c1cc(Cl)c(OCCCl)c(C#N)c1", "> 2 µM"],
  ["Cc1cc(C(C)(C)c2ccc(OC(C)c3ocnc3S(C)(=O)=O)cc2)cc(C#N)c1OCCCl (stereo not shown)", "0.5 to 2 µM"],
  ["CC(C)S(=O)(=O)Nc1nc(COc2ccc(C(C)(C)c3cc(Cl)c(OCCCl)c(C#N)c3)cc2)co1", "0.5 to 2 µM"],
  ["Cn1c(COc2ccc(C(C)(C)c3cc(Cl)c(OCCCl)c(Cl)c3)cc2)cnc1S(C)(=O)=O", "0.5 to 2 µM"]
]}

(Q) // query IC50 value for entry Cc1cc(C(C)(C)c2ccc(OC(C)c3ncc(S(C)(=O)=O)o3)cc2)cc(C#N)c1OCCCl (stereo not shown)
(A) 0.5 to 2 µM

(Q) Check CC(C)(c1ccc(OCc2cnc(C(N)=O)o2)cc1)c1cc(Cl)c(CCCCl)c(C#N)c1 too.
(A) 0.5 to 2 µM

Where do the numbers come from? From patent US11059795B2.
